Cited source for all entries: ChEMBL document CHEMBL5512657

# Assayed system: TGF-beta receptor type-1 (Homo sapiens)
# Sequence (P36897 whole entry): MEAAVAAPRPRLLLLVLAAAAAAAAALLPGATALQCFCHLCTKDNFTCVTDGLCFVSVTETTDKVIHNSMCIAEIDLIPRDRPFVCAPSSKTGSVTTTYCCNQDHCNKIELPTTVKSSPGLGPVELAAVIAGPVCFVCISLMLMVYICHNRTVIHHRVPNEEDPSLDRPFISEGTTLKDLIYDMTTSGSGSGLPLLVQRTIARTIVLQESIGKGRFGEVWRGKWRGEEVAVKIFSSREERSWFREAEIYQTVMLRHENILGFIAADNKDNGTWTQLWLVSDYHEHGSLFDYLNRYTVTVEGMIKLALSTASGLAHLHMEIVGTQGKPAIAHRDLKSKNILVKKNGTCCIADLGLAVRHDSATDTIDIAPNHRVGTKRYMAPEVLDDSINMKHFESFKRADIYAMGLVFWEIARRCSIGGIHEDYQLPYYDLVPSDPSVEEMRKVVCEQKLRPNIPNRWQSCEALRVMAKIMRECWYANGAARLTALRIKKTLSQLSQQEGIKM
# Assay notes: Inhibition of TGFbetaR1 (unknown origin)
Attribute measured: IC50

Please give the measured IC50 for this molecule: Cc1cccc(-c2nc(C34CCC(C(N)=O)(CC3)CC4)[nH]c2-c2ccc3c(c2)OCO3)n1
0.047 µM
